molecular target: SIRT1 (Homo sapiens); test: mass spectrometry based SIRT1 deacetylation assay (activation); assay type: biochemical; settings: 0.5 μM peptide substrate, 120 μM βNAD+, 10 nM SIRT1, 25 min at 25° C.; read-out: % FOLD ACT. (percent maximum fold activation of SIRT1)
Emax overview

| structure_string | value_prefix | Emax [%] |
| --- | --- | --- |
| CN(C)Cc1cnc2sc(-c3ccccc3NC(=O)c3cnc4ccccc4n3)nc2c1 | = | 163 |
| O=C(Nc1ccccc1-c1nc2cc(CN3CCOCC3)cnc2s1)c1cnc2ccccc2c1 | = | 189 |
| O=C(Nc1ccccc1-c1nc2cc(CN3CCOCC3)cnc2s1)c1cn2ccccc2n1 | = | 427 |
| O=C(Nc1ccccc1-c1nc2cc(CN3CCNCC3)cnc2s1)c1cnc2ccccc2n1 | = | 303 |
| O=C(Nc1ccccc1-c1nc2cc(CN3CCOCC3)cnc2s1)c1cccc(-c2nnn[nH]2)c1 | = | 204 |
| O=C(Nc1ccccc1-c1nc2cc(CN3CCOCC3)cnc2s1)c1ccn(-c2ccccc2)n1 | = | 443 |
| O=C(Nc1ccccc1-c1nc2cc(CN3CCNCC3)cnc2s1)c1cccc(-c2cccnc2)c1 | = | 392 |
| O=C(Nc1ccccc1-c1nc2cc(CN3CCNCC3)cnc2s1)c1cccc(-c2ccncc2)c1 | = | 316 |
| COCCN1CCN(Cc2cnc3sc(-c4ccccc4NC(=O)c4cccc(-c5ccccc5C(F)(F)F)n4)nc3c2)CC1 | = | 457 |
| O=C(Nc1ccccc1-c1nc2cc(CN3CCOCC3)cnc2s1)c1ccnc(-c2ccccc2)n1 | = | 100 |
| Cc1nc(-c2cccnc2)sc1C(=O)Nc1ccccc1-c1nc2cc(CN3CCC(N)CC3)cnc2s1 | = | 297 |
| COc1ccc(-c2ccc(C(=O)Nc3ccccc3-c3nc4cc(CN5CCOCC5)cnc4s3)o2)cc1 | = | 236 |
| O=C(Nc1ccccc1-c1nc2cc(CN3CCNCC3)cnc2s1)c1cccc(-n2cccn2)c1 | = | 603 |
| O=C(Nc1ccccc1-c1nc2cc(CN3CCNCC3)cnc2s1)c1cn2cc(Cl)ccc2n1 | = | 437 |
| O=C(Nc1ccccc1-c1nc2cc(CNC3CCNCC3)cnc2s1)c1ccc2ccccc2n1 | > | 500 |
| COCCN1CCN(Cc2cnc3sc(-c4ccccc4NC(=O)c4cccc(-c5ncccn5)c4)nc3c2)CC1 | = | 212 |
| C[C@@H]1CN(Cc2cnc3sc(-c4ccccc4NC(=O)c4cccc(-c5ccccn5)c4)nc3c2)C[C@H](C)N1 | = | 531 |
| O=C(Nc1ccccc1-c1nc2cc(CN3CC[C@@H](F)C3)cnc2s1)c1cccc(-n2cccn2)c1 | = | 236 |
| O=C(Nc1ccccc1-c1nc2cc(CN3CCOCC3)cnc2s1)c1cncc(-c2ccccc2F)c1 | = | 207 |
| O=C(Nc1ccccc1-c1nc2cc(CN3CCOCC3)cnc2s1)c1ccc2ccccc2n1 | = | 295 |
| Cc1nc(-c2cccnc2)sc1C(=O)Nc1ccccc1-c1nc2cc(CN3C[C@@H](C)N[C@@H](C)C3)cnc2s1 | = | 131 |
| Cc1nc(-c2cccnc2)sc1C(=O)Nc1ccccc1-c1nc2cc(CN3CCOCC3)cnc2s1 | = | 100 |
| Cc1nc(-c2cccc(C(=O)Nc3ccccc3-c3nc4cc(CN5CCOCC5)cnc4s3)c2)cs1 | = | 241 |
| COCCN1CCN(Cc2cnc3sc(-c4ccccc4NC(=O)c4cccc(-c5ccccc5C#N)n4)nc3c2)CC1 | = | 372 |
| O=C(Nc1ccccc1-c1nc2cc(CN3CCOCC3)cnc2s1)c1cc(-c2ccccc2)n[nH]1 | = | 246 |
| COCCN1CCN(Cc2cnc3sc(-c4ccccc4NC(=O)c4cc(-c5ccccc5)n[nH]4)nc3c2)CC1 | > | 500 |
| COCCN1CCN(Cc2cnc3sc(-c4ccccc4NC(=O)c4cnc5ccccc5n4)nc3c2)CC1 | = | 161 |
| O=C(Nc1ccccc1-c1nc2cc(CN3CCOCC3)cnc2s1)c1ccc2ccccc2c1 | = | 162 |
| O=C(Nc1ccccc1-c1nc2cc(CN3CCOCC3)cnc2s1)c1cc(-c2ccccc2)no1 | = | 132 |
| COCCN1CCN(Cc2cnc3sc(-c4ccccc4NC(=O)c4cc(-c5ccccc5)ncn4)nc3c2)CC1 | = | 166 |
| NC1CCN(Cc2cnc3sc(-c4ccccc4NC(=O)c4cccc(-c5ccccc5)c4)nc3c2)CC1 | = | 578 |

* * *

Molecular target: SIRT1 (Homo sapiens, UniProt Q96EB6)
Sequence (Q96EB6 1-747): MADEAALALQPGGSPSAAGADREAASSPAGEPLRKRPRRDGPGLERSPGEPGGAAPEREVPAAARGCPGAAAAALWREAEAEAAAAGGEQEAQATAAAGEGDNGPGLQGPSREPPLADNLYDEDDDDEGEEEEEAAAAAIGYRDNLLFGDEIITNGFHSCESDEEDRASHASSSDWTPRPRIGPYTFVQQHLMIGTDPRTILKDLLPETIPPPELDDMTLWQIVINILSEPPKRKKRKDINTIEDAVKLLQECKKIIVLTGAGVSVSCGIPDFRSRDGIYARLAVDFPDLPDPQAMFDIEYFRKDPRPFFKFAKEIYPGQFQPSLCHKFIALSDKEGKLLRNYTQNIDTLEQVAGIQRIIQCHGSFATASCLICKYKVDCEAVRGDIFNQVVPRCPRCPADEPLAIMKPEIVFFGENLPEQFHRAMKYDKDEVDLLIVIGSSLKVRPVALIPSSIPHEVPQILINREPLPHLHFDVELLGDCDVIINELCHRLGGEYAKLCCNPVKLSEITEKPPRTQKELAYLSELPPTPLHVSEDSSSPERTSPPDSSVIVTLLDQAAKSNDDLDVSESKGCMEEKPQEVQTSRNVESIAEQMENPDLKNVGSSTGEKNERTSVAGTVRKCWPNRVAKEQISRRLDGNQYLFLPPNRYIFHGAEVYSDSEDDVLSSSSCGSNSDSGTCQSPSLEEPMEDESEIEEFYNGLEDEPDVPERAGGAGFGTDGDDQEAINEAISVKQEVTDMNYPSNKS
Assay: mass spectrometry based SIRT1 deacetylation assay (activation)
Format: biochemical
Conditions: 0.5 μM peptide substrate, 120 μM βNAD+, 10 nM SIRT1, 25 min at 25° C.; NA = not active in the assay
Description: A mass spectrometry based assay was used to identify modulators of SIRT1 activity. The mass spectrometry based assay utilizes a peptide having 20 amino acid residues as follows: Ac-EE-K(biotin)-GQSTSSHSK(Ac)NleSTEG-K(5TMR)-EE-NH2 (SEQ ID NO: 1) wherein K(Ac) is an acetylated lysine residue and Nle is a norleucine. The peptide is labeled with the fluorophore 5TMR (excitation 540 nm/emission 580 nm) at the C-terminus. The sequence of the peptide substrate is based on p53 with several modifications. […]
observable: EC1.5 (concentration of test compound that results in 150% activation of SIRT1) (NM)

| structure_string | target_desc | quantitative_readout |
| --- | --- | --- |
| COCCN1CCN(Cc2cnc3sc(-c4ccccc4NC(=O)c4cccc(-c5cccc(Cl)c5)n4)nc3c2)CC1 | SIRT1 (Homo sapiens, UniProt Q96EB6) | 88 |
| [2H]c1c([2H])c([2H])c(-c2cccc(C(=O)Nc3ccccc3-c3nc4cc(CN5CCCC5)cnc4s3)c2)c([2H])c1[2H] | SIRT1 (Homo sapiens, UniProt Q96EB6) | 845 |
| O=C(Nc1ccccc1-c1nc2cc(CN3CCNCC3)cnc2s1)c1cc(-c2ccccc2)no1 | SIRT1 (Homo sapiens, UniProt Q96EB6) | 592 |
| COc1ccc(-c2ccc(C(=O)Nc3ccccc3-c3nc4cc(CN5CCOCC5)cnc4s3)o2)cc1 | SIRT1 (Homo sapiens, UniProt Q96EB6) | 421 |

* * *

Below, each entry is listed with its recorded Emax.
molecular target: SIRT1 (Homo sapiens); test: mass spectrometry based SIRT1 deacetylation assay (activation); format: biochemical; settings: 0.5 μM peptide substrate, 120 μM βNAD+, 10 nM SIRT1, 25 min at 25° C.; read-out: % FOLD ACT. (percent maximum fold activation of SIRT1)
observable: Emax (%)

| compound | observable | quantitative_readout |
| --- | --- | --- |
| O=C(Nc1ccccc1-c1nc2cc(CN3CC[C@@H](F)C3)cnc2s1)c1cccc(-c2ccccn2)c1 [Compound 26] | Emax | 192 |
| COCCN1CCN(Cc2cnc3sc(-c4ccccc4NC(=O)c4cccc(-c5cccc(C(F)(F)F)c5)n4)nc3c2)CC1 [Compound 140] | Emax | 500 |
| O=C(Nc1ccccc1-c1nc2cc(CN[C@H]3CCNC3)cnc2s1)c1cccc(-c2ccccn2)c1 [Compound 37] | Emax | 422 |
| O=C(Nc1ccccc1-c1nc2cc(CN3C[C@@H]4C[C@H]3CN4)cnc2s1)c1cccc(-c2cccnc2)c1 [Compound 29] | Emax | 378 |
| Cn1cc(-c2ccccc2)cc1C(=O)Nc1ccccc1-c1nc2cc(CN3CCCC3)cnc2s1 [Compound 151] | Emax | 170 |
| CC(C)NCc1cnc2sc(-c3ccccc3NC(=O)c3cccc(-c4ccncc4)c3)nc2c1 [Compound 22] | Emax | 417 |
| O=C(Nc1ccccc1-c1nc2cc(CN3CCCC3)cnc2s1)c1cc(-c2ccccc2)n[nH]1 [Compound 153] | Emax | 226 |
| COCCN1CCN(Cc2cnc3sc(-c4ccccc4NC(=O)c4cccc(-c5cccc(C#N)c5)n4)nc3c2)CC1 [Compound 148] | Emax | 500 |
| O=C(Nc1ccccc1-c1nc2cc(CN3CCCC3)cnc2s1)c1cccc(-c2ccccn2)c1 [Compound 20] | Emax | 224 |
| COCCN1CCN(Cc2cnc3sc(-c4ccccc4NC(=O)c4cccc(-c5ccccn5)c4)nc3c2)CC1 [Compound 34] | Emax | 492 |
| O=C(Nc1ccccc1-c1nc2cc(CN3CCOCC3)cnc2s1)c1cnc2ccccc2n1 [Compound 65] | Emax | 100 |
| O=C(Nc1ccccc1-c1nc2cc(CN3CCOCC3)cnc2s1)c1cn2cc(Cl)ccc2n1 [Compound 127] | Emax | 143 |
| O=C(Nc1ccccc1-c1nc2cc(CN3CCOCC3)cnc2s1)c1cccc(-n2cccn2)c1 [Compound 40] | Emax | 397 |
| COCCN1CCN(Cc2cnc3sc(-c4ccccc4NC(=O)c4cncc(-c5ccccc5)c4)nc3c2)CC1 [Compound 35] | Emax | 234 |
| COCCN1CCN(Cc2cnc3sc(-c4ccccc4NC(=O)c4cc(C)nc(-c5ccccc5)n4)nc3c2)CC1 [Compound 131] | Emax | 500 |
